The reported measurements were obtained from PubChem BioAssay AID463173.

System: DeltatarO mutant
Test: S. aureus survival, RN4220 and DeltatarO strains – OD600, teichoic acid synthesis inhibitors, primary screen (AID 463173)
Conditions: S. aureus RN4220 wild type/DeltatarO growth, OD600, 18 h, screened at 18.75 µg/mL (by protocol)
Hit rate of the full screen: of about 52,000 compounds, about 4,300 (8.3%) were called active. Rule as the data show it: active = survival mostly below about 52% (no sharp cut-off); inactive = mostly above about 56%. The entries come from a sample that favours actives as a whole.
Can you answer with just one of these options? active, inactive

Reference set, count: 3
{"molecule": "CCOc1ccc(NCc2cccn2-c2nnc(N3CCC(C(=O)NC(C)c4ccccc4)CC3)s2)cc1 (stereo unspecified)", "class_name": "inactive"}
{"molecule": "CCOC(=O)CN1C(=O)N(c2ccc(C)c(C)c2)S(=O)(=O)c2ccccc21", "class_name": "inactive"}
{"molecule": "CC1=C(C(=O)NCc2cccc(F)c2)C2(CCCCCC2)OC1=O", "class_name": "inactive"}

Q: Hi, sorry to bother you, what did the test record for `COc1cccc(-n2c(=O)c3sc4ccccc4c3n(CC(=O)NC3CCCCC3)c2=O)c1` ?
A: inactive

Q: Recorded call for CC1=C(C(=O)Nc2ccccc2Br)C2(CCC(C)CC2)OC1=O (stereo unspecified) ?
A: inactive

* * *

System: DeltatarO mutant
Assay: S. aureus survival, RN4220 and DeltatarO strains – OD600, teichoic acid synthesis inhibitors, primary screen (AID 463173)
Conditions: S. aureus RN4220 wild type/DeltatarO growth, OD600, 18 h, hits give low values, screened at 18.75 µg/mL (by protocol)
Hit rate of the full screen: of about 52,000 compounds, about 4,300 (8.3%) were called active. The full list was thinned out, with actives kept by preference.
property_name: survival (%)
Give bare numbers, in %.

{"compound": "O=C(CCC(=O)N1CC2CCCN2c2ccccc21)NCc1ccccc1 (stereo not given)", "measured_target": "DeltatarO mutant", "test_value": 74}
{"compound": "CCOc1ccc(C(=O)Nc2nnc(S(=O)(=O)Nc3ccccc3)s2)cc1", "measured_target": "DeltatarO mutant", "test_value": 34}
{"compound": "CCOc1ccc(C(=O)Nc2nnc(S(=O)(=O)N(CC)c3ccccc3C)s2)cc1", "measured_target": "DeltatarO mutant", "test_value": 44}

Take each entry in turn and give its survival.
1. Cc1ccc(C(=O)NCC(c2ccco2)S(=O)(=O)c2cccs2)cc1C (stereo not given)
2. CN(C(=O)CSc1nc(-c2ccco2)cc(C(F)(F)F)n1)c1ccccc1
3. CCOCCCNC(=O)c1ccc(NC(=O)N2CCCCc3ccccc32)cc1
4. CCN(CC)CC(=O)Oc1ccc(NC2=NS(=O)(=O)c3ccccc32)cc1
5. COc1cccc(CNC(=O)CCC(=O)N2CC3CCCN3c3ccccc32)c1 (stereo not given)
6. Cc1ccc(CNC(=O)CSc2ncc(S(=O)(=O)c3ccc(Br)cc3)c(=O)[nH]2)cc1

A:
1: 102; 2: 92; 3: 89; 4: 96; 5: 66; 6: 125

Q: Given `CCOc1ccc(NC(=O)CN(c2ccc(C)cc2)S(=O)(=O)c2cccs2)cc1` , report its survival on DeltatarO mutant.
A: 83

* * *

Test system: DeltatarO mutant
Assay: S. aureus survival, RN4220 and DeltatarO strains – OD600, teichoic acid synthesis inhibitors, primary screen (AID 463173)
Conditions: S. aureus RN4220 wild type/DeltatarO growth, OD600, 18 h, screened at 18.75 µg/mL (by protocol)
The whole screen tested about 52,000 compounds, of which about 4,300 (8.3%) were called active. Rule as the data show it: active = survival mostly below about 52% (no sharp cut-off); inactive = mostly above about 56%. This excerpt belongs to a sample that is enriched for actives.
Log the outcome using a class from active, inactive

Recorded results for 3 molecules are shown here.
{"molecule": "CCN(c1ccccc1)S(=O)(=O)c1nnc(NC(=O)c2ccco2)s1", "class_name": "active"}
{"molecule": "CCCOC(=O)c1ccc(Nc2nc3ccccc3nc2-n2nc(C)cc2C)cc1", "class_name": "active"}
{"molecule": "Cc1ccc(NC(=O)CSc2nc3ccccc3nc2N2CCOCC2)cc1", "class_name": "inactive"}

Q: What did this assay record as the result for CCOc1cccc(NC(=O)C2CC(=O)N(C)C(=Nc3cccc(OC)c3)S2)c1 (stereo not drawn) ?
A: inactive

Q: Tell me the assay call for COc1cc(CN(C(=O)c2ccccc2F)C2CCS(=O)(=O)C2)cc(OC)c1OC (stereo not drawn) please.
A: inactive

Q: Entry `O=C(c1ccccc1)n1nc(-c2ccco2)nc1NCc1cccs1` : call = ?
A: inactive

Q: Assay outcome for `Cc1cccc(-n2ncc3c(NC4CCCC4)ncnc32)c1` : what was it?
A: inactive

Q: Tell me the recorded outcome of this test for `COc1cccc(NC(=O)CSc2nc3ccccc3nc2N2CCOCC2)c1` .
A: inactive

Q: // outcome(item) with item = `CC(C)CN(c1ccccc1)S(=O)(=O)c1nnc(NC(=O)c2ccco2)s1`
A: active
